# System: T-47D breast
# Test: NCI-60 one-dose screen, 48 h (100 = growth as untreated, 0 = no growth, -100 = all killed)
# Conditions: 10 µM unless noted
The panel holds about 83,000 compounds, 20% with a hit somewhere; the sample as a whole holds those more often. Active and inactive are the calls of the source. How the source made its calls: active means growth percent below 10; inactive means the rest.
Readout Type: growth

GET /value?item= COc1ccc(C2CC(c3ccccc3)=Nc3ccccc3S2)cc1 (stereo unspecified) &field=growth returns 84.1% (inactive)

The recorded growth for COc1cc(-c2ccc(NC(=O)CC(C)=O)c(OC)c2)ccc1NC(=O)CC(C)=O is 108% (inactive)

Noted for Cc1c(Cl)cccc1N=C=S : its growth reads 107% (inactive)

So, CC(=O)N(CCCCCCN(C(C)=O)C(C)=O)C(C)=O ? Its growth was 101% [100 µM] (inactive)

For this molecule ( CC1(C)CCC(C)(C)NC(=S)N1 ), measured growth is 98.5% (inactive)

Lab note: Cn1c(=O)c2[nH]c(CCCCC(=O)O)nc2n(C)c1=O gave growth of 113% (inactive)

# growth of CC(=O)NCNC(C)=O = 108% (inactive)

Lab book: growth of Oc1ccc(CCC2CCNc3ccccc32)cc1 (stereo unspecified) noted as 63.9% (inactive)

Documented growth of COc1cc2c(c(OC)c1OC)-c1ccc(SC)c(=O)cc1[C@@H](NC1OC(CO)C(O)C(O)C1O)CC2 (stereo partly specified) : 52.5% (inactive)

Measured growth of CCOc1ccc(NC(=S)N2CCC(CCCC3CCN(C(=S)Nc4ccc(OCC)cc4)CC3)CC2)cc1 : 67.8% (inactive)

Please fill in: growth reported for Oc1cc(O)c2c(c1)O[C@H](c1ccc(O)c(O)c1)[C@@H](O)C2 = 104% (inactive)

###

Assign growth to each entry below.
# Test system: RXF 393 renal
# Test: NCI-60 one-dose screen, 48 h (100 = growth as untreated, 0 = no growth, -100 = all killed)
# Conditions: 10 µM unless noted
About 83,000 compounds went through this panel and 20% of them were active in at least one assay; those are over-represented in the sample as a whole.
Numbers only; they are read as %.

Assay RXF 393 renal, sample CN(C)c1ccc2c(N(C)C)cc(N(C)C)nc2c1 , growth read: 97.7

Here CCCCn1cnc2c(=O)[nH]cnc21 was tested on RXF 393 renal, and its growth came to 118

Response field growth (RXF 393 renal) for item NC(CSSCC(N)C(=O)O)C(=O)O (stereo not drawn) : -37.9

The molecule CCOc1ccc(C(=O)O)cc1 , when measured on RXF 393 renal, yielded growth of 105

Assay RXF 393 renal, sample CSc1nc2[nH]ncc2c(=O)[nH]1 , growth read: 92.6

Simply: C=C(OC(C)=O)c1ccccc1 , RXF 393 renal, growth = 113

Entry CC(C)c1ccc(C(=O)OCCCl)cc1 under RXF 393 renal had growth of 41.8

Field growth (system: RXF 393 renal) for entry N#CCCN1C(=O)CCC1C(=O)O (stereo not drawn) = 115

###

Answer each item with its documented growth.
# Test system: SN12C renal
# Test: NCI-60 one-dose screen, 48 h (100 = growth as untreated, 0 = no growth, -100 = all killed)
# Conditions: 10 µM unless noted
The panel holds about 83,000 compounds, 20% with a hit somewhere; the sample as a whole holds those more often.
// note: answer is a bare numeric in %

Noted for Nc1ncnc(Nc2ccccc2)n1 : its growth reads 105

Reported growth of COc1cc2c(c(OC)c1OC)-c1ccc(SC)c(=O)cc1[C@@H](NC1OC(CO)C(O)C(O)C1O)CC2 (stereo partly specified) : 33.6

response.value for N#C/C(=C\c1ccc(C#N)cc1)C(=O)c1ccccc1 (field: growth) = 95.7

Recorded growth (compound NC(=S)N/N=C/c1ccc(Cl)cc1 ): 128

// field: growth; key: Cc1nc(O)cc(=O)[nH]1 ; value = 109

Reported growth of Nc1nc2nnc(-c3ccccc3)c(-c3ccccc3)n2n1 : 94.7
